Read-out: solute carrier (SLCO1B1), SLCO1B1 (gene 10599)
Assay: LTEA_HepaRG_SLCO1B1: Life Technologies and Expression Analysis (LTEA) Assay for solute carrier (SLCO1B1) using HepaRG (AID 2283530)
Details: mRNA level, 48 h; actives raise or lower the signal
Active and inactive are the calls of the source. Rule for the calls: active = hit-call score of the fitted dose curve at least 0.9, where 1 is the maximum; inactive = score below 0.9.
endpoint: outcome

> print(dat)
                         smilesinput  endpoint       val
1             CN(C)C(=S)SSC(=S)N(C)C   outcome  inactive
2  CCCCNC(=O)n1c(NC(=O)OC)nc2ccccc21   outcome  inactive
3            CCNc1nc(Cl)nc(NC(C)C)n1   outcome  inactive
